# key: entry, value: GTP binding, percent of control
Tested On: GTPase HRas (Homo sapiens)
Measurement Protocol: Ras wt fluorescent GTP loading blockade – biochemical, wildtype, multiplex bead flow cytometry, dose response (AID 1335)
Measurement Context: bead-based flow cytometry, Bodipy-GTP binding to GST-Ras; at 100 µM (top of the series) unless noted

Molecule | GTP binding, percent of control, %
O=C(N/N=C(\c1ccccc1)c1ccccn1)c1cccc([N+](=O)[O-])c1 | 68.7
Cc1nnc(N2CCOCC2)c2nn(-c3ccccc3)c(C)c12 | 71.2
COc1cccc(CNCc2sc(C(=O)O)cc2C)c1OC | 80.7
O=C(O)c1cc(Sc2ccccc2)nc2ccccc12 | 81.9
COc1cc(/C=C2\SC(c3ccccc3)=NC2=O)cc(Cl)c1O | 71
OCCC1CN(Cc2ccccc2O)CCN1CCc1ccccc1 (stereo unspecified) | 82.7
FC(F)(F)c1cccc(NC(=S)NNC(=S)NCc2ccccc2)c1 | 81.8
COc1ccccc1OCCn1cc(C(=O)O)c2cc(C)ccc21 | 212
COc1ccc(CCNc2cc(=O)[nH]c(N)n2)cc1 | 48.2
Cc1sc2nc3c(SC(C)C(=O)O)cc(C(=O)c4ccccc4O)cn3c(=O)c2c1C (stereo unspecified) | 72.1
COc1cccc(NC(=O)COC(=O)/C=C/c2ccc(Cl)cc2Cl)c1 | 62

====

# key: entry, value: GFP response, % of DMSO
Measurement Protocol: yeast AGP1-GFP level changes, GLN3 branch – cell-based, multiplex flow cytometry, S. cerevisiae, primary screen (AID 1887);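 note: AGP1-GFP fusion strain of S. cerevisiae within a five-strain barcoded multiplex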
Measurement Context: 3 h, at 10 µM, stronger effect = higher value
Records with an inconclusive call do not appear.
Observed Property: GFP response, % of DMSO (%)

Mol | Unit Label | Recorded Measurement
CSCC[C@H](NC(=O)OC(C)(C)C)C(=O)N1CCC(C(=O)N[C@@H](C)C(=O)O)CC1 | % | 98.8
CC/C(=C(\c1ccc(O)cc1)c1ccc(OCCN(C)C)cc1)c1ccccc1 | % | 114
CC(=O)Oc1ccc2c(=O)c(Oc3ccccc3[N+](=O)[O-])coc2c1 | % | 95.6
Cc1c(Cc2ccccc2)c(=O)oc2c(CN(C)C)c(O)c(Cl)cc12 | % | 98

====

Tested On: Cell division control protein 42 homolog (Homo sapiens)
Measurement Protocol: inhibition of fluorescent GTP binding to wildtype Cdc42 – biochemical, multiplex bead flow cytometry, Bodipy-FL-GTP, dose response (AID 1334)
Measurement Context: bead-based flow cytometry, Bodipy-FL-GTP binding to GST-Cdc42; at 100 µM (top of the series) unless noted
Results with a measured potency or affinity are listed apart.
Observed Property: fluorescence, percent of control (lower = inhibition) (%)

Molecule | Recorded Measurement
O=C(O)c1ccccc1NCc1ccccc1Cl | 65.3
O=C(O)c1c(C(F)(F)F)ccnc1SCc1ccccc1 | 62
CCCc1cc(-n2ccnc2)n2c(nc3ccccc32)c1C#N | 172
COc1ccc(C2=Nn3c(nnc3-c3ccccc3)SC2)cc1OC | 37.5
C/C(=N\Nc1ccc(S(N)(=O)=O)cc1[N+](=O)[O-])c1ccc2c(c1)OCO2 | 36.3
CCNC(=S)N=Nc1c(O)[nH]c2ccc([N+](=O)[O-])cc12 | 32.4
CCOC(=O)c1c(NC(=O)/C=C/c2ccc3c(c2)OCO3)sc(C)c1CC | 30.9
CC(C)(C)NC(=O)CSc1nccn1Cc1ccccc1 | 33.3
C=CC#CC[N+]1(CC#Cc2ccccc2)CCOCC1 | 97.9
Cc1cc(C(=O)NC(=S)Nc2cccc(C(=O)O)c2C)ccc1[N+](=O)[O-] | 37.3
N#C/C(=C/c1ccc(N2CCCCCC2)o1)c1ccc(Cl)cc1 | 127
COc1ccc(S(=O)(=O)N2CCCCC2)cc1NC(=O)c1ccc([N+](=O)[O-])o1 | 32.3
O=C(C1CCCO1)N1CCN(C(=S)Nc2ccccc2C(F)(F)F)CC1 (stereo not drawn) | 53.3
Oc1c(C=Nc2cccc3cccnc23)sc2ccccc12 | 93.4
COc1cc(/C=N\NC(=O)c2ccc(Cn3nc([N+](=O)[O-])c(Cl)c3C)o2)ccc1O | 29.9
NC(=O)c1cc2ccccc2o/c1=N/NC(=O)c1cccs1 | 33.4
O=c1c2ccccc2nc2c3ccccc3c(NCc3ccco3)nn12 | 80.4
CC(=O)c1cc2c(cc1NC(=O)c1cccc(S(=O)(=O)N3CCN(C)CC3)c1)OCO2 | 40.9
CN1CCN(c2ccccc2NC(=O)c2ccc(-c3cccc([N+](=O)[O-])c3)o2)CC1 | 40.2
Cc1ccc(Cc2cnc(NC(=O)/C(C#N)=C/c3ccc(-c4ccc([N+](=O)[O-])cc4)o3)s2)cc1 | 28.5
O=C(O)C1=C[C@H](c2ccc(Br)cc2)C[C@H](OCc2ccc(CO)cc2)O1 | 30.3
COC(=O)c1ccc(/C=N/Nc2nc(-c3ccc(Cl)cc3Cl)cs2)cc1 | 39.1

====

Tested On: AP-2 complex subunit beta (Homo sapiens)
Measurement Protocol: beta-arrestin/AP2 interaction blockers – biochemical, validation set, GST-AP2 beads, flow cytometry, pilot screen (AID 504541);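 note: AP2 carries R879A mutation and is captured from E. coli lysate; bead-bound FITC arrestin peptide fluorescence measuring arrestin peptide binding to AP2; 0% = DMSO wells and 100% = excess unlabeled arrestin peptide control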
Measurement Context: FITC arrestin peptide, at 10 µM, stronger effect = higher value, AP2 beta2 appendage fragment, R879A mutant

Molecule | Tested On | inhibition / %
CCN1/C(=C/C=C/C=C/c2sc3ccccc3[n+]2CC)Sc2ccccc21 | AP-2 complex subunit beta (Homo sapiens) | 75.8
COc1cc(OC)c(-c2nc3cnccc3n2C)cc1OC | AP-2 complex subunit beta (Homo sapiens) | -2.31
CC(CCCC(C)(C)O)NC(=O)c1ccc(OC2CCN(C(=O)C3CC3)CC2)cc1 (configuration not stated) | AP-2 complex subunit beta (Homo sapiens) | 10.3
CCC(C)NCCOc1ccccc1C (configuration not stated) | AP-2 complex subunit beta (Homo sapiens) | 29
O=C(Nc1ccc(C(=O)NC2CCCCC2)cc1)c1cccnc1 | AP-2 complex subunit beta (Homo sapiens) | -15.9
O=S(=O)(CCc1nc2ccccc2[nH]1)c1ccc(Cl)cc1 | AP-2 complex subunit beta (Homo sapiens) | -4.72
CCOc1ccc(C(=O)NCC2(c3ccccc3)CCOCC2)cc1 | AP-2 complex subunit beta (Homo sapiens) | -4.75
C[C@]12CC[C@H]3[C@@H](CCC4=CC(=O)CC[C@@]43C)[C@@H]1CC[C@@H]2C(=O)CO | AP-2 complex subunit beta (Homo sapiens) | 11.7
CC1=NS(=O)(=O)c2cc(Cl)ccc2N1 | AP-2 complex subunit beta (Homo sapiens) | 14.6
CCOC(=O)Cn1c(C)cc(=O)c2ccccc21 | AP-2 complex subunit beta (Homo sapiens) | 56.3
Cc1cc(C)nc(NS(=O)(=O)c2ccc(N)cc2)n1 | AP-2 complex subunit beta (Homo sapiens) | -9.4
COc1cc2c(cc1OC)C(c1ccc(-c3cc(Cl)ccc3Cl)o1)=NCC2 | AP-2 complex subunit beta (Homo sapiens) | 17.6
CCOc1ccc(N2C(=O)CC(NCCNc3ccc([N+](=O)[O-])cn3)C2=O)cc1 (configuration not stated) | AP-2 complex subunit beta (Homo sapiens) | -8.05
Cc1cnc(N)c2c(=O)oc3ccccc3c12 | AP-2 complex subunit beta (Homo sapiens) | -2.59
CC(C)(S)[C@@H](N)C(=O)O | AP-2 complex subunit beta (Homo sapiens) | -6.4
CC12CCC(C(=O)N(CCC#N)CCC#N)(CC1=O)C2(C)C (configuration not stated) | AP-2 complex subunit beta (Homo sapiens) | 44.5
Cc1ccc(CN2CCN(CCCc3ccccc3)CC2CCO)cc1 (configuration not stated) | AP-2 complex subunit beta (Homo sapiens) | 30.3

====

Measurement Protocol: TOR pathway LAP4-GFP level changes – S. cerevisiae, multiplex flow cytometry, primary screen (AID 1873)
Measurement Context: S. cerevisiae LAP4-GFP expression, 3 h, at 10 µM, stronger effect = higher value
Results filed as inconclusive are left out. Calls of active or inactive are those of the source.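 Rule for the calls: active = GFP signal, as percent of the solvent control, above the screen mean plus 3 SD, about 149; inconclusive = no reading because the compound's own fluorescence upset strain identification; inactive = the rest.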

Compound | GFP response vs DMSO
O=C(NCc1ccc2c(c1)OCO2)c1ccc2c(c1)OCCO2 | 92.6% (inactive)
COc1ccc(CCNc2ncnc3c2[nH]c2cc(OC)c(OC)cc23)cc1OC | 82.5% (inactive)
CCOc1cc(C=O)ccc1OCCSc1ccc(C)cc1 | 168% (active)
Cn1c([N+](=O)[O-])cnc1COC(N)=O | 83.6% (inactive)
COc1ccc(C(=O)Nc2ncc3c(n2)CC(C)CC3=O)cc1 (stereo unspecified) | 110% (inactive)
CCCCCCCC(=O)OCC(=O)[C@@]1(O)CC[C@H]2[C@@H]3CCC4=CC(=O)CC[C@]4(C)[C@H]3[C@@H](O)C[C@@]21C | 96.6% (inactive)
COc1ccc(OC)c(NC2=C(Cl)C(=O)N(Cc3ccccc3)C2=O)c1 | 103% (inactive)
Cn1c(=S)n(C)c2ccccc21 | 110% (inactive)
COc1ccccc1C(CCN(Cc1ccccc1)C(C)=O)c1ccco1 (stereo unspecified) | 78.7% (inactive)
COc1ccccc1NC(=O)Cn1c(C)cc(=O)c2cccc(OC)c21 | 90.2% (inactive)
CC(C)NS(=O)(=O)c1ccc(OCC(=O)Nc2cccc(F)c2)cc1 | 89.3% (inactive)
